EXPERIMENTAL SYSTEM: T1, PSMA Fab (biotinylated (site not stated))
T1 construct: also called Anti-PSMA Fab; 006 PSMA Fab
EXPERIMENT SUMMARY: phage ELISA on captured PSMA Fab pre-incubated with PSMA antigen as competitor, anti-M13-HRP detection
Below, each of the binders is paired with its reported Phage binding ELISA signal, Anti-PSMA Fab with PSMA antigen value.
READOUT KIND: Phage binding ELISA signal, Anti-PSMA Fab with PSMA antigen

# BINDER, RESULT
data = [
    ("MDVLCRPEWMCTGF (Peptide-180 library clone, tested as clonal phage supernatant with the peptide fused to pIII) [Phage-3290]", 0.0971),
    ("PTLRCEPLWMCAGF (Peptide-180 library clone, tested as clonal phage supernatant with the peptide fused to pIII) [Phage-3286]", 0.0911),
    ("YEMRCVPDWMCVGL (Peptide-180 library clone, tested as clonal phage supernatant with the peptide fused to pIII) [Phage-3292]", 0.0906),
    ("ETLMCIPNWMCDGF (Peptide-180 library clone, tested as clonal phage supernatant with the peptide fused to pIII) [Phage-3293]", 0.0837),
    ("VDAYCKPAWMCLGF (Peptide-180 library clone, tested as clonal phage supernatant with the peptide fused to pIII) [Phage-3288]", 0.0998),
    ("FDHLCIPVWMCKGF (Peptide-180 library clone, tested as clonal phage supernatant with the peptide fused to pIII) [Phage-3283]", 0.0828),
]
